Here, each record is paired with measured Vd/F data.
MEASUREMENT DESCRIPTION: Pharmacokinetic study in nitroglycerin-induced migraine model rats (plasma, HPLC-MS/MS)
Format: in vivo, rat
CONDITION NOTES: female, Sprague-Dawley, rat, in vivo, po, 40 mg/kg; read-out: V z/F
Method: Healthy Sprague-Dawley (SD) female rats weighing 180 g ± 20 were provided by Hunan SJA Laboratory Animal Co., Ltd. (animal license number: SCXK (Xiang) 2016-0002). Rats underwent adaptive feeding for one week and were fasted for 12 h. Rats had open access to water throughout the study. For pharmacokinetic analysis, 18 SD rats were randomly divided into 3 groups and 0.4 mL of nitroglycerin (dosage: 10 mg/kg) was injected into the forehead to establish the migraine model. […]

TEST SMILES: CC[C@H]1CN2CC[C@]3(C(=O)Nc4ccccc43)[C@@H]2C[C@@H]1/C(=C\OC)C(=O)OC
VALUE UNIT: L/kg
Vd/F: 663
//
TEST SMILES: CC[C@H]1CN2CC[C@@]3(C(=O)Nc4ccccc43)[C@@H]2C[C@@H]1/C(=C\OC)C(=O)OC
VALUE UNIT: L/kg
Vd/F: 242
